The origin of these recorded values is ChEMBL document CHEMBL5338817.

molecular target: Histone acetyltransferase p300 (Homo sapiens, UniProt Q09472); test: Induction of p300 degradation in human RS4-11 cells assessed as maximal degradation incubated for 4 hrs by Western blot assay relative to control; type: cell-based
Sequence (Q09472 whole entry): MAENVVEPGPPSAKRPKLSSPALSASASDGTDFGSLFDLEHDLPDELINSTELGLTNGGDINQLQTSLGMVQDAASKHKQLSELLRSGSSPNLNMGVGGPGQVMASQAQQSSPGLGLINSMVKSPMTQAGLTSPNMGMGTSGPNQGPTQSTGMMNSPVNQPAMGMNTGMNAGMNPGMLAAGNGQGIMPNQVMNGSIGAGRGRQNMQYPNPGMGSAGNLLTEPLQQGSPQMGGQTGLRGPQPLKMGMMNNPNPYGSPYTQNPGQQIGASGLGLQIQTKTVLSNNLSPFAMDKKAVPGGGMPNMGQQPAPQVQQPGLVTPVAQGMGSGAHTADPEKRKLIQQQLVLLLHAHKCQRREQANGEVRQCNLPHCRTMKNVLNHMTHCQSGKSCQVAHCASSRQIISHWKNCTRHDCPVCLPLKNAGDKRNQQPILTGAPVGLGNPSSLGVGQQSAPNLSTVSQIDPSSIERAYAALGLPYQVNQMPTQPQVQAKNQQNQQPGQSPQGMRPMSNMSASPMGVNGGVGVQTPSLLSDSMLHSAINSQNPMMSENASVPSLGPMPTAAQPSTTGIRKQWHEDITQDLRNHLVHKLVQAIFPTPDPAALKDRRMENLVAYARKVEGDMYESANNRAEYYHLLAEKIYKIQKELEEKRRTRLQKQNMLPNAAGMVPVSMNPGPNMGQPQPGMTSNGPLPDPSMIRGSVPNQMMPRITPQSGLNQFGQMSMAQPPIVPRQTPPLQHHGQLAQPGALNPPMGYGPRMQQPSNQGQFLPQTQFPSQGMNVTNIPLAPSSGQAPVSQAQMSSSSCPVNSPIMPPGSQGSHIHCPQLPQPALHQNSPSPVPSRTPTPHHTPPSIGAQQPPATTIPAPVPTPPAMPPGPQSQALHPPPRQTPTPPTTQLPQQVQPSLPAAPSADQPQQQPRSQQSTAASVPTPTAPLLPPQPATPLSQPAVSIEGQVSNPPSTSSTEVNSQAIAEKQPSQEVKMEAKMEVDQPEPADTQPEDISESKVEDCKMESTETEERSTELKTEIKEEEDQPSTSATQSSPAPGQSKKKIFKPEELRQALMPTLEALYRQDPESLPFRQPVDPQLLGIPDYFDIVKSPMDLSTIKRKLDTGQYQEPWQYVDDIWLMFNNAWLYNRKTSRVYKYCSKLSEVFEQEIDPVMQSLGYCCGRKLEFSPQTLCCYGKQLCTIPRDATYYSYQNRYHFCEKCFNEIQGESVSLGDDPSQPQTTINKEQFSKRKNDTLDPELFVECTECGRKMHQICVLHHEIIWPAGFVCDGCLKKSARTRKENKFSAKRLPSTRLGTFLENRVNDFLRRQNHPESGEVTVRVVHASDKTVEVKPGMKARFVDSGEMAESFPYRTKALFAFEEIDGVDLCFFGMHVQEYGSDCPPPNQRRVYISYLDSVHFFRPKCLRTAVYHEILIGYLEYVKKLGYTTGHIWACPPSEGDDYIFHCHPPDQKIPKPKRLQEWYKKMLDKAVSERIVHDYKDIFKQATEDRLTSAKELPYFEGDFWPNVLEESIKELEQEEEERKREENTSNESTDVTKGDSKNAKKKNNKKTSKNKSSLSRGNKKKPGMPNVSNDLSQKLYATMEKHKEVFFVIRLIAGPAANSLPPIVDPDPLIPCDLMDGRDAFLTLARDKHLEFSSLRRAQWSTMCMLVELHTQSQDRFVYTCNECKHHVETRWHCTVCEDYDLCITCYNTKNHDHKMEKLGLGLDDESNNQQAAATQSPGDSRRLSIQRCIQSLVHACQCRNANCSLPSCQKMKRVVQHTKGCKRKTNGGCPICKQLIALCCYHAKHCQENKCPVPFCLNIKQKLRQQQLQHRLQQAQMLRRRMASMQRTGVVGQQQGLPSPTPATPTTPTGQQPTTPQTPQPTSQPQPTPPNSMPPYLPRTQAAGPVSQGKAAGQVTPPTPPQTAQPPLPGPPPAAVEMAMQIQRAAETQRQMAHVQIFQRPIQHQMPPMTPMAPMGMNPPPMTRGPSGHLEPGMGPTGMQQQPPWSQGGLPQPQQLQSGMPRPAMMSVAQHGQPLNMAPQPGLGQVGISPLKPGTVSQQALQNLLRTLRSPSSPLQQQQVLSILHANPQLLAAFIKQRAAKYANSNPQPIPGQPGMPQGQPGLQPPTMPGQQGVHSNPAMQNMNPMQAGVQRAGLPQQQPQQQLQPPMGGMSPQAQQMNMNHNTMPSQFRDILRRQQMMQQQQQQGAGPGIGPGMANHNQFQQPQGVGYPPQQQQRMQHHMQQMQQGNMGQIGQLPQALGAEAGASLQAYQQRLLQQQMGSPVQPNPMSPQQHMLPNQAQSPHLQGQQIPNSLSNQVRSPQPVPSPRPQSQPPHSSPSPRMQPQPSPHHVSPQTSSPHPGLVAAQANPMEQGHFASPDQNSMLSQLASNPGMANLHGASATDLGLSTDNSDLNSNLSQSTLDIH
ATTRIBUTE_MEASURED: Emax (%)

For orientation, consider the following solved cases.
COMPOUND | ATTRIBUTE_MEASURED | UNITS_SYMBOL | READOUT_NUMBER
CC(=O)N1CCc2c(c(-c3cccc4cc(-c5ccc(C(=O)NCCCc6cccc7c6CN(C6CCC(=O)NC6=O)C7=O)nc5)ncc34)nn2C2CCOCC2)C1 (stereo not drawn) | Emax | % | 99
CC(=O)N1CCc2c(c(-c3cccc4cc(-c5ccc(C(=O)NCCNc6cccc7c6C(=O)N(C6CCC(=O)NC6=O)C7=O)nc5)ncc34)nn2C2CCOCC2)C1 (stereo not drawn) | Emax | % | 37
CC(=O)N1CCc2c(c(-c3cccc4cc(-c5ccc(C(=O)NCCCNc6ccc7c(c6)CN(C6CCC(=O)NC6=O)C7=O)nc5)ncc34)nn2C2CCOCC2)C1 (stereo not drawn) | Emax | % | 99

(P) CC(=O)N1CCc2c(c(-c3cccc4cc(-c5ccc(C(=O)NCCCCCc6cccc7c6CN(C6CCC(=O)NC6=O)C7=O)nc5)ncc34)nn2C2CCOCC2)C1 (stereo not drawn)
(Q) CC(=O)N1CCc2c(c(-c3cccc4cc(-c5ccc(C(=O)N6CCC(C7CCN(c8cccc9c8C(=O)N(C8CCC(=O)NC8=O)C9=O)CC7)CC6)nc5)ncc34)nn2C2CCOCC2)C1 (stereo not drawn)
(R) CC(=O)N1CCc2c(c(-c3cccc4cc(-c5ccc(C(=O)N6CCC(C7CN(c8cccc9c8C(=O)N(C8CCC(=O)NC8=O)C9=O)C7)CC6)nc5)ncc34)nn2C2CCOCC2)C1 (stereo not drawn)
(Q) Your job: order these 3 records by Emax, ascending. Thanks in advance for listing the labels in the requested order.
(A) Q, R, P
